Liver values by entry
Test name: Organ distribution 14 days after infusion (Table V)
Format: in vivo, rats
Experimental context: 14 days after infusion of 40 cc/Kg
Please state the number and follow it with the unit.

Examples from the recorded data:
Compound	Liver
CCCCCCCCCCCCCCCCOC(COCCCCCCCCCCCCCC)COP(=O)([O-])OCC[N+](C)(C)C (centres unmarked)	7.76 g/100 g
CCCCCCCCCCCCCCCCCCOC(COCCCCCCCCCCCCCC)COP(=O)([O-])OCC[N+](C)(C)C (centres unmarked)	7.52 g/100 g
CCCCCCCCCCCCCCCCOCC(COP(=O)([O-])OCC[N+](C)(C)C)OCCCCCCCCCCCCCC (centres unmarked)	7.97 g/100 g

Incoming: Any idea what its Liver is? The compound is CCCCCCCC/C=C\CCCCCCCCOCC(COP(=O)([O-])OCC[N+](C)(C)C)OCCCCCCCC/C=C\CCCCCCCC (centres unmarked)
Outgoing: 7.47 g/100 g

Incoming: Any idea what its Liver is? The compound is CCCCCCCCCCCCCCCCCCOCC(COP(=O)([O-])OCC[N+](C)(C)C)OCCCCCCCCCCCCCCCC (centres unmarked)
Outgoing: 6.64 g/100 g

The origin of these recorded values is patent US5439944A.
